Test system: U-251
experimental-details: NCI tumour cell line growth inhibition, 48 h
The source made the active and inactive calls. No stated cut-off is given here; in the data, active = GI50 up to about 1.1 µM and inactive = higher. Non-standard residues stand in square brackets, D forms with d. Residues, ends and D or L forms follow the SMILES beside them. *: point of attachment. Cbz = O=C(OCc1ccccc1)*; Boc = CC(C)(C)OC(=O)*; Aib = CC(C)(N)C(=O)O; OBn = c1ccc(CO*)cc1; OtBu = CC(C)(C)O*; βAla = NCCC(=O)O
Labels: yes = active, no = inactive

| compound | class-assignment |
| --- | --- |
| COC(=O)c1ccccc1/C=C1\Cc2ccc3c(c2C1=O)CCCC3 | no |
| CC[C@H]1C=CCC[C@@]2(C[C@@H]3CC[C@@H]4[C@H](C(=O)OCCCCCCCCCCCCCCCC(=O)N(CCCN)CCCCN)[C@]5(CCC[C@@H](C)O5)NC(=[N+]34)N2)O1 | yes |
| CC(C)(C)OC(=O)CC(NC(=O)OC(C)(C)C)C(=O)NC(CCCCNC(=O)OCc1ccccc1)C(=O)NC(C)(C)C(=O)NCCC(=O)OCc1ccccc1 (stereo not drawn) (Boc-D(OtBu)K(Cbz)[Aib][βAla]-OBn; configuration not given here) | no |
| C=CC(=O)C#CC#CC/C=C\CCCCCCC | no |
| NC(=O)c1ccccc1NC(=O)C(=O)C(c1cnc2ccc([N+](=O)[O-])cc2n1)[N+](=O)[O-] (stereo not drawn) | no |
| COC(=O)CSc1nnc(-c2ccccc2)[nH]1 | no |
| COc1ccc(/C=N/n2c(C)n[nH]c2=O)c(OC)c1 | no |
| O=C1c2ccccc2C(=O)c2c1ccc(O)c2O | no |
